System: 242566-281-R-J2-PDC complex spheroid viability;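 further: spheroids exposed to compound for 7 days before readout; 100% = DMSO vehicle control wells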
Experiment: Anticancer human tumor 242566-281-R-J2-PDC patient-derived pancreatic carcinoma cell line growth inhibition [RAS]
Conditions: second compound 0.000949 µM; first compound 0.1 µM; stronger effect = lower value
Could you please report measured viability, T/C for the items listed next?
Numbers only, in %.

query: For the compound CC(C)NCC(C(=O)N1CCN(c2ncnc3c2C(C)CC3O)CC1)c1ccc(Cl)cc1 (stereo not drawn) + CCn1c(-c2cc(N3CCN(C)CC3)cnc2C(C)OC)c2c3cc(ccc31)-c1csc(n1)CC(NC(=O)C1CC1C)C(=O)N1CCCC(N1)C(=O)OCC(C)(C)C2 , give its reported viability, T/C.
result: 92.8

query: Specify measured viability, T/C for CCN1CCN(Cc2ccc(Nc3ncc(F)c(-c4cc(F)c5nc(C)n(C(C)C)c5c4)n3)nc2)CC1 + CCn1c(-c2cccnc2C(C)OC)c2c3cc(ccc31)N1CCOC(CC(NC(=O)C(C(C)C)N(C)C(=O)C3(F)CCN(C(=O)C#CC(C)(C)N(C)C)CC3)C(=O)N3CCCC(N3)C(=O)OCC(C)(C)C2)C1 .
result: 88.5

query: Quick one: give measured viability, T/C for NC1c2ccccc2OC12CCN(c1cnc3c(N4CCCc5ncccc54)n[nH]c3n1)CC2 (stereo not drawn) + CCn1c(-c2cc(N3CCN(C)CC3)cnc2C(C)OC)c2c3cc(ccc31)-c1csc(n1)CC(NC(=O)C1CC1C)C(=O)N1CCCC(N1)C(=O)OCC(C)(C)C2
result: 40.6

query: Report viability, T/C for Cc1nc(N2CCC3(CC2)COC(C)C3N)c(CO)nc1Sc1ccnc(N)c1Cl (stereo not drawn) + CCn1c(-c2cccnc2C(C)OC)c2c3cc(ccc31)N1CCOC(CC(NC(=O)C(C(C)C)N(C)C(=O)C3(F)CCN(C(=O)C#CC(C)(C)N(C)C)CC3)C(=O)N3CCCC(N3)C(=O)OCC(C)(C)C2)C1
result: 93.2

query: Recall and state the measured viability, T/C for CCN1CCN(Cc2ccc(Nc3ncc(F)c(-c4cc(F)c5nc(C)n(C(C)C)c5c4)n3)nc2)CC1 + CCn1c(-c2cc(N3CCN(C)CC3)cnc2C(C)OC)c2c3cc(ccc31)-c1csc(n1)CC(NC(=O)C1CC1C)C(=O)N1CCCC(N1)C(=O)OCC(C)(C)C2 .
result: 76

Dear colleague, could you please provide viability, T/C for the compounds listed below?
1. C[C@@H](NC(=O)c1ncnc(N)c1Cl)c1ncc(C(=O)Nc2cc(C(F)(F)F)c(Cl)cn2)s1 + CCn1c(-c2cccnc2C(C)OC)c2c3cc(ccc31)N1CCOC(CC(NC(=O)C(C(C)C)N(C)C(=O)C3(F)CCN(C(=O)C#CC(C)(C)N(C)C)CC3)C(=O)N3CCCC(N3)C(=O)OCC(C)(C)C2)C1
2. CC(Nc1ccc2c(c1)OCCn1cc(N3C(=O)OCC3C(F)F)nc1-2)C(N)=O (stereo not drawn) + CCn1c(-c2cc(N3CCN(C)CC3)cnc2C(C)OC)c2c3cc(ccc31)-c1csc(n1)CC(NC(=O)C1CC1C)C(=O)N1CCCC(N1)C(=O)OCC(C)(C)C2
3. CC(C)NCC(C(=O)N1CCN(c2ncnc3c2C(C)CC3O)CC1)c1ccc(Cl)cc1 (stereo not drawn) + CCn1c(-c2cccnc2C(C)OC)c2c3cc(ccc31)N1CCOC(CC(NC(=O)C(C(C)C)N(C)C(=O)C3(F)CCN(C(=O)C#CC(C)(C)N(C)C)CC3)C(=O)N3CCCC(N3)C(=O)OCC(C)(C)C2)C1

result:
107
85.2
98.4
